List of MFI values.
Target: T1, mouse MSR1 on RAW264.7 cells (mouse, UniProt P30204 1-458)
T1 construct: whole, on cells
T1 sequence (looked up): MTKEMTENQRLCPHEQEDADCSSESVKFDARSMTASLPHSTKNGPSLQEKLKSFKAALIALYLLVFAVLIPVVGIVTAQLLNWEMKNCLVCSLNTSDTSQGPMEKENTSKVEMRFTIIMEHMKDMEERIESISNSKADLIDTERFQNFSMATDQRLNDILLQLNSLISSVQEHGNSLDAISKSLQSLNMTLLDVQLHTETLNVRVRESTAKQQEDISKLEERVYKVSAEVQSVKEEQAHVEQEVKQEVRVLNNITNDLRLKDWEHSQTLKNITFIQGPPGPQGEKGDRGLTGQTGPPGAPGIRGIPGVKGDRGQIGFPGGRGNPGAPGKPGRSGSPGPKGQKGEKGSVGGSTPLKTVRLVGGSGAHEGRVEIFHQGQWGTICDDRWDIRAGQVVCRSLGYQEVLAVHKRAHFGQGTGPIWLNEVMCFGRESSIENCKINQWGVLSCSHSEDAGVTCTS
Experiment: flow cytometry, RAW264.7 cells, 10 ug/mL;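 further: antibodies bound to RAW264.7 cells for 30 min on ice after Fc block with mouse IgG, S/N is MFI relative to unstained cells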
OBSERVATION TYPE: MFI

>>> quantitative_readout("H1H27732P-N297Q (antibody, human IgG1, V domains shown, human IgG1 Fc with N297Q) VH: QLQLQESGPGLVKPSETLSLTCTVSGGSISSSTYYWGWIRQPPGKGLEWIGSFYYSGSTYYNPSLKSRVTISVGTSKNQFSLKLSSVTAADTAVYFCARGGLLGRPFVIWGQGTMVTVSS VL: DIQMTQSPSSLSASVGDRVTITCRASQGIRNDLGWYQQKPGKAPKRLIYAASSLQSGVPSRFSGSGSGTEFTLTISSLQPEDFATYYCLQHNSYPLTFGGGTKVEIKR")
3420
>>> quantitative_readout("H1H27747P-N297Q (antibody, human IgG1, V domains shown, human IgG1 Fc with N297Q) VH: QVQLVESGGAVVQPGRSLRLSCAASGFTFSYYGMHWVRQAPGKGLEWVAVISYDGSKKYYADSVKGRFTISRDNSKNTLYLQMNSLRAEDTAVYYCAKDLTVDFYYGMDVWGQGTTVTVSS VL: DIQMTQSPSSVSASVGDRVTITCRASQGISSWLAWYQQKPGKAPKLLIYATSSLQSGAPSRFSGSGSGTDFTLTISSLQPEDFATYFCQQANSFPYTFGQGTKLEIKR")
3630
>>> quantitative_readout("H1H27749P-N297Q (antibody, human IgG1, V domains shown, human IgG1 Fc with N297Q) VH: QVQLQESGPGLVKPSETLSLTCTVSDGSISSYYWSWIRQPPGRGLEWIGFIYYSGSTSYNPSLKSRVTISVDTSMSQFSLKLRSVTAADTAVYYCARGSPFDYWGPGTLVTVSS VL: EIVLTQSPGTLSLSPGERATLSCRASQSVSSSYLAWYQQRPGQAPSLLISGASRRATGIPDRFSGSGSGTDFTLTIRRLEPEDFAMYYCQQYGSSPPTFGGGTKVEIKR")
3790
